Please go through the items and note down their inhibition of growth at 2 ppm.
# Test system: Pythium ultimum
# Experimental Protocol: Amended agar assay
# Assay type: cell-based
# Cond: Globisporangium ultimum; amended PDA agar, 2 ppm, % reduction in colony growth vs control plate, 18° C.

So what's the measured inhibition of growth at 2 ppm for this one? CCNc1cccc(COc2nc3ccccc3n2-c2nnnn2C)n1
> 99%

What do you get for Cn1nnnc1-n1c(OCc2cccc(Br)n2)nc2ccccc21 ?
< 50%

And what about the compound COc1ccnc(COc2nc3c(Cl)cccc3n2-c2nnnn2C)c1 ?
> 99%

Again, but for Cn1nnnc1-n1c(OCc2cccc(NCCc3ccccc3)n2)nc2ccccc21
> 99%

Here is the next compound: COCCCOc1ccnc(COc2nc3c(Cl)cccc3n2-c2nnnn2C)c1C
> 99%

And the next one, COc1ccnc(COc2nc3ccccc3n2-c2ncncc2Cl)c1 ?
50 to 99%

Follow-up entry: Cn1nnnc1-n1c(OCc2cccc(-c3ccccc3)n2)nc2ccccc21
< 50%

Try this compound too: Cn1nnnc1-n1c(OCc2cccc(NCc3cccc(C#N)c3)n2)nc2ccccc21
> 99%
